target-under-test: T1, KRAS G12D peptide on HLA-A*11:01 (human)
T1 peptide: VVVGADGVGK
measurement-description: CD137 by flow cytometry; transduced primary CD4+ and CD8+ T cells without knockout of TRAC and TRBC; G12D peptide titrated (FIG. 3C); full-length, on cells
Description: Primary CD4+ and CD8+ T cells were transduced with a KRAS-G12D-specific T cell receptor (TCR69, TCR79, TCR80, TCR81, or TCR91), and were either edited to knockout TRAC and TRBC or left with unmodified TRAC and TRBC genes, and expanded for several days. Engineered T cells were incubated with G12D peptide at decreasing concentrations and T cell responses were assessed by measuring CD137 expression. […]
property-label: Cmax

Here's what some known entries look like.
* TCR4 (TCR, V domains shown) Valpha: QKEVEQDPGPLSVPEGAIVSLNCTYSNSAFQYFMWYRQYSRKGPELLMYTYSSGNKEDGRFTAQVDKSSKYISLFIRDSQPSDSATYLCAMGALNSGAGSYQLTFGKGTKLSVIP Vbeta: KAGVTQTPRYLIKTRGQQVTLSCSPISGHRSVSWYQQTPGQGLQFLFEYFSETQRNKGNFPGRFSGRQFSNSRSEMNVSTLELGDSALYLCASSLSSGTGTEAFFGQGTRLTVE | 16%
* TCR5 (TCR, V domains shown) Valpha: GEDVEQSLFLSVREGDSSVINCTYTDSSSTYLYWYKQEPGAGLQLLTYIFSNMDMKQDQRLTVLLNKKDKHLSLRIADTQTGDSAIYFCAERDAGNNRKLIWGLGTSLAVNP Vbeta: GAGVSQSPRYKVAKRGQDVALRCDPISGHVSLFWYQQALGQGPEFLTYFQNEAQLDKSGLPSDRFFAERPEGSVSTLKIQRTQQEDSAVYLCASSLEGGDTQYFGPGTRLTVL | 23.9%
* TCR2 (TCR, V domains shown) Valpha: AQTVTQSQPEMSVQEAETVTLSCTYDTSENNYYLFWYKQPPSRQMILVIRQEAYKQQNATENRFSVNFQKAAKSFSLKISDSQLGDTAMYFCAFMYPSQGGSEKLVFGKGMKLTVNP Vbeta: ETGVTQSPTHLIKTRGQQVTLRCSSQSGHNTVSWYQQALGQGPQFIFQYYREEENGRGNFPPRFSGLQFPNYSSELNVNALELDDSALYLCASSSPGFRSYGYTFGSGTRLTVV | 42.7%

Please find the next binder below.
Data request: Reported Cmax, binder TCR91 (TCR, V domains shown) Valpha: AQKVTQAQTEISVVEKEDVTLDCVYETRDTTYYLFWYKQPPSGELVFLIRRNSFDEQNEISGRYSWNFQKSTSSFNFTITASQVVDSAVYFCALNEGGGSTLGRLYFGRGTQLTVWP Vbeta: DAMVIQNPRYQVTQFGKPVTLSCSQTLNHNVMYWYQQKSSQAPKLLFHYYDKDFNNEADTPDNFQSRRPNTSFCFLDIRSPGLGDAAMYLCATSTGRVYQPQHFGDGTRLSIL : ____
Data returned: 14.4%
